Values of log10 of IC50 reported for NAMPT (Homo sapiens, UniProt P43490) appear below.
Recorded IC50 (log10, µM)

[
  {
    "molecule": "Cc1ncccc1N1CC(C(=O)Nc2ccc(C3CCN(C(=O)c4cccc(Cl)c4)CC3)cc2)C1 [Example 153]",
    "recorded-value": -0.91
  },
  {
    "molecule": "CC1(C(=O)N2CCC(Oc3ccc(NC(=O)C4CN(c5cccnc5)C4)cc3)CC2)CC1 [Example 66]",
    "recorded-value": -3.27
  },
  {
    "molecule": "O=C(Nc1ccc(OC2CCN(C(=O)Cc3ccc(F)cc3)CC2)cc1)C1CN(c2ccnnc2)C1 [Example 276]",
    "recorded-value": -1.46
  },
  {
    "molecule": "CC(C)(C)OC(=O)N1CCC(Oc2ccc(C(=O)N[C@@H]3CCN(c4cccnc4)C3)cc2)CC1 [Example 28]",
    "recorded-value": -2.60
  },
  {
    "molecule": "O=C(Nc1ccc(OC2CCN(C(=O)Cc3ccccc3F)CC2)cc1)C1CN(c2ccnnc2)C1 [Example 308]",
    "recorded-value": -1.74
  },
  {
    "molecule": "O=C(Nc1ccc(OC2CCN(C(=O)C3CCOCC3)CC2)cc1)C1CN(c2ccnnc2)C1 [Example 306]",
    "recorded-value": -1.33
  },
  {
    "molecule": "CCOCCC(=O)N1CCC(c2ccc(NC(=O)C3CN(c4cccnc4C)C3)cc2)CC1 [Example 175]",
    "recorded-value": -0.79
  }
]

Proceed to the following item.
Req: Under NAMPT (Homo sapiens, UniProt P43490): log10 of IC50 value of O=C(Nc1ccc(OC2CCN(C(=O)CC3CCOCC3)CC2)cc1)C1CN(c2cccnc2)C1 [Example 1] ?
Resp: -3.41

###

Test system: PC3 cells
Assay: NAMPT Cell Proliferation Assay (Cell Titer Glo; also performed in the presence of 0.3 mM nicotinamide mononucleotide)
Assay type: cell-based
Conditions: Homo sapiens, PC-3, 120 h, 5 days incubation, cell viability by Cell Titer Glo
Description: NAMPT Cell Proliferation Assay PC3 cells were seeded in 96-well black plates (Corning #3904) at 500 cells/well in 90 μl of RPMI media containing 10% heat-inactivated FBS and incubated overnight at 37° C. and 5% CO2 to allow cells to attach to wells. […] Cells were incubated for 5 days at 37° C. and 5% CO2, then cell viability was measured using Cell Titer Glo reagent (Promega #G7571). […]
Mark 1 only when IC50 stays strictly below 6 nM. Values equal to the cut-off are 0.

[
  {
    "molecule": "Cc1ccc(N2CC[C@H](C(=O)Nc3ccc(C4CCN(C(=O)c5ccccc5)CC4)cc3)C2)nn1",
    "classification": 0
  }
]

Req: Does the reported IC50 of Cc1ccc(C(=O)N2CCC(Cc3ccc(NC(=O)C4CN(c5cccnn5)C4)cc3)CC2)cn1 stay below 6 nM?
Resp: 1

Req: Does the reported IC50 of CC1(NC(=O)c2ccc(NC(=O)C3CN(c4cccnn4)C3)cc2)CC1 stay below 6 nM?
Resp: 0

Req: Does the reported IC50 of CCC(C)C(=O)N1CCC(Cc2ccc(NC(=O)C3CN(c4cccnn4)C3)cc2)CC1 (centres unmarked) stay below 6 nM?
Resp: 1

Req: Does the reported IC50 of O=C(Nc1ccc(CC2CCN(C(=O)c3ccsc3)CC2)cc1)C1CN(c2cccnn2)C1 stay below 6 nM?
Resp: 1

Req: Does the reported IC50 of CC(C)C(=O)N1CCC(c2ccc(NC(=O)C3CN(c4cccnn4)C3)cc2F)CC1 stay below 6 nM?
Resp: 0

Req: Does the reported IC50 of Cc1ccsc1C(=O)N1CCC(Cc2ccc(NC(=O)C3CN(c4cccnn4)C3)cc2)CC1 stay below 6 nM?
Resp: 1

###

Biological target: NAMPT (human, recombinant, C-terminally His-tagged) (Homo sapiens)
Experiment: Time-Resolved Fluorescence Resonance Energy Transfer (TR-FRET) Binding Assay of NAMPT
Conditions: 6.8 nM NAMPT, 200 nM probe, equilibrated 3 hours, absence of substrates
Method: Determination of the utility of compounds having Formula (I) as binders to and inhibitors of NAMPT was performed using Time-Resolved Fluorescence Resonance Energy Transfer (TR-FRET) binding assays. Time-Resolved Fluorescence Resonance Energy Transfer (TR-FRET) Binding Assay of NAMPT […]
Documented pIC50 across a set of compounds
Field pIC50 (float): negative decimal logarithm of the concentration in molar.

[
  {
    "compound": "O=C(Nc1ccc(OC2CCN(C(=O)C3CCOC3)CC2)cc1)C1CN(c2ccnnc2)C1 (stereo not shown) [Example 298]",
    "target-system": "NAMPT (human, recombinant, C-terminally His-tagged) (Homo sapiens)",
    "parameter": "pIC50",
    "recorded-value": 6.72
  },
  {
    "compound": "O=C(Nc1ccc(OC2CCN(C(=O)c3cccc(F)c3)CC2)cc1)C1CN(c2cccnn2)C1 [Example 231]",
    "target-system": "NAMPT (human, recombinant, C-terminally His-tagged) (Homo sapiens)",
    "parameter": "pIC50",
    "recorded-value": 6.76
  }
]

Req: Param item = CC(=O)N1CCC(Oc2ccc(NC(=O)C3CN(c4cccnc4)C3)cc2)CC1 [Example 56] ; retrieve measured pIC50.
Resp: 6.44

Req: Param item = Cc1ncccc1N1CC(C(=O)Nc2ccc(C3CCN(C(=O)CC(C)C)CC3)cc2)C1 [Example 197] ; retrieve measured pIC50.
Resp: 6.90

###

Molecular target: NAMPT (human, recombinant, C-terminally His-tagged) (Homo sapiens, UniProt P43490)
Sequence (P43490 whole entry): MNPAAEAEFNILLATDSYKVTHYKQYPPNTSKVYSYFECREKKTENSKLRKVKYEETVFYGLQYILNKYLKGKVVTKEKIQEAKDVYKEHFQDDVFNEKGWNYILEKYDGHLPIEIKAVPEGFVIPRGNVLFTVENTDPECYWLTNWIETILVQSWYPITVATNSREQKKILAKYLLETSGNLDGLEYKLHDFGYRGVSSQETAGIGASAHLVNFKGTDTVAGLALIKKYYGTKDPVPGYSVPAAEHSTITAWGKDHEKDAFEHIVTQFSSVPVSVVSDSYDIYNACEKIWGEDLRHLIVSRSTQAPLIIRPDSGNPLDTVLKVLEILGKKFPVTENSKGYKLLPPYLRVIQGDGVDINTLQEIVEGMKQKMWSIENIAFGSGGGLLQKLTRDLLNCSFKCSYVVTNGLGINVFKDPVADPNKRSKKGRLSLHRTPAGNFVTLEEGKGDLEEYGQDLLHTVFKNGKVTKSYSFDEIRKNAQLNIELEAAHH
Assay: Time-Resolved Fluorescence Resonance Energy Transfer (TR-FRET) Binding Assay of NAMPT
Settings: 6.8 nM NAMPT, 200 nM probe, equilibrated 3 hours, absence of substrates
Documented IC50 across a set of molecules
Record the result as a number with its unit.

# annotated cases, reported IC50 shown
[
  {
    "molecule": "N#Cc1ccc(C(=O)N2CCC(c3ccc(NC(=O)C4CN(c5cccnn5)C4)cc3)CC2)cc1 [Example 353]",
    "IC50": "88.2 nM"
  },
  {
    "molecule": "O=C(Nc1ccc(OC2CCN(C(=O)c3cccc(Cl)c3)CC2)cc1)C1CN(c2cccnn2)C1 [Example 250]",
    "IC50": "107 nM"
  }
]

Req: Param item = Cc1ncccc1N1CC(C(=O)Nc2ccc(C3CCN(C(=O)C4CC4C)CC3)cc2)C1 (stereo not shown) [Example 163] ; retrieve measured IC50.
Resp: 166 nM

Req: Param item = O=C(Nc1ccc(OC2CCN(C(=O)c3ccoc3)CC2)cc1)C1CN(c2cccnc2)C1 [Example 54] ; retrieve measured IC50.
Resp: 72.1 nM

###

Target: NAMPT (human, recombinant, C-terminally His-tagged) (Homo sapiens, UniProt P43490)
Experiment: Time-Resolved Fluorescence Resonance Energy Transfer (TR-FRET) Binding Assay of NAMPT
Conditions: 6.8 nM NAMPT, 200 nM probe, equilibrated 3 hours, absence of substrates
pIC50: −log10 of the molar value.
Is pIC50 at least 7? Then condition met. If not, condition not met.

[
  {
    "smi": "CC(C)(C)CC(=O)N1CC(Oc2ccc(NC(=O)C3CN(c4ccnnc4)C3)cc2)C1",
    "classification": "condition met"
  },
  {
    "smi": "Cc1ccsc1C(=O)N1CCC(c2ccc(NC(=O)C3CN(c4cccnc4C)C3)cc2)CC1",
    "classification": "condition met"
  },
  {
    "smi": "Cc1ncccc1N1CC(C(=O)Nc2ccc(C3CCN(C(=O)CCN4CCOCC4)CC3)cc2)C1",
    "classification": "condition not met"
  }
]

Req: Could you please find out whether O=C(Nc1ccc(OC2CCN(C(=O)Cc3ccc(OC(F)(F)F)cc3)CC2)cc1)C1CN(c2cccnn2)C1 has pIC50 that meets 7 or exceeds it?
Resp: condition not met

Req: Could you please find out whether Cc1ccc(C(=O)N2CCC(c3ccc(NC(=O)C4CN(c5cccnc5)C4)cc3)CC2)s1 has pIC50 that meets 7 or exceeds it?
Resp: condition met

###

Target: NAMPT (Homo sapiens, UniProt P43490)
Sequence (P43490 whole entry): as above
parameter: IC50 (nM)
Enter your answer as a number in nM; do not include the unit.

# annotated cases, reported IC50 shown
[
  {
    "smi": "O=C(Nc1ccc(C2CCN(C(=O)CN3CCOCC3)CC2)cc1)C1CN(c2cccnc2)C1",
    "IC50 [nM]": 0.493
  },
  {
    "smi": "CC(C)C(=O)N1CCC(Oc2ccc(NC(=O)C3CN(c4cccnc4)C3)cc2)CC1",
    "IC50 [nM]": 1.02
  }
]

Req: Under NAMPT (Homo sapiens, UniProt P43490): IC50 value of CC[C@H](C)C(=O)N1CCC(Oc2ccc(C(=O)NC3CN(c4cccnc4)C3)cc2)CC1 ?
Resp: 0.61

Req: Under NAMPT (Homo sapiens, UniProt P43490): IC50 value of O=C(Nc1ccc(OC2CCN(C(=O)Cc3ccc(OC(F)(F)F)cc3)CC2)cc1)C1CN(c2cccnn2)C1 ?
Resp: 0.554
